System: SK-MEL-5 melanoma
Assay: NCI-60 one-dose screen, 48 h (100 = growth as untreated, 0 = no growth, -100 = all killed)
Details: 10 µM unless noted
Compounds without any hit were thinned out: in the full panel of roughly 83,000, 20% have a hit.
Binarize growth at 80%; below is 1.0, at or above is 0.0.

{"columns": ["COMPOUND", "CATEGORY LABEL"],
 "data": [
  ["CCCCC(O)Cn1ncc(C(=O)OCC)c1NC(=O)NCc1ccccc1C(F)(F)F (centres undefined)", 0.0],
  ["CCOC(=O)n1cc(C2=C(c3cn(C)c4ccccc34)COC2=O)c2ccccc21", 1.0],
  ["CCOc1ccc(-c2cnnn2-c2nonc2-n2cccc2)cc1", 1.0],
  ["O=[N+]([O-])c1cc2c(cc1Br)C1C(C3C2C(Cl)(Cl)C(Cl)=C(Cl)C3(Cl)Cl)C(Cl)(Cl)C(Cl)=C(Cl)C1(Cl)Cl (centres undefined)", 0.0],
  ["CSC1=CC(=O)c2ccccc2C1=O", 0.0],
  ["Brc1ccc(Br)nn1", 1.0],
  ["COc1ccc(/C=C2\\CN(Cc3cn(CCCNc4ccnc5cc(Cl)ccc45)nn3)C/C(=C\\c3ccc(OC)cc3)C2=O)cc1", 1.0],
  ["Cc1cc(Cl)c2c(Cl)ccc(Cl)c2n1", 0.0],
  ["O=C1c2ccccc2-c2nnc(-c3ccc(Br)cc3)cc21", 1.0],
  ["CCOC(=O)c1cnn(CC(O)c2ccc(F)cc2)c1NC(=O)Nc1ccccc1F (centres undefined)", 1.0],
  ["COc1ccccc1-n1c(SCc2cc(OC)c(OC)c(OC)c2)nc2ccc(Cl)cc2c1=O", 1.0],
  ["COc1ccc(-c2c(-c3cc4c(c(OC)c3OC)OCO4)noc2N)cc1", 1.0],
  ["COc1ccc(/C=C2\\CN(Cc3cn(CCCNc4ccnc5cc(Cl)ccc45)nn3)C/C(=C\\c3ccc(OC)c(OC)c3)C2=O)cc1OC", 1.0],
  ["CCN1CCN(C(=S)SCC(=O)Nc2nc3ccc(OC)cc3s2)CC1", 0.0]
]}

* * *

System: BT-549 breast
Experiment: NCI-60 one-dose screen, 48 h (100 = growth as untreated, 0 = no growth, -100 = all killed)
Conditions: 10 µM unless noted
About 83,000 compounds went through this panel and 20% of them were active in at least one assay; those are over-represented in the sample as a whole.
ENDPOINT: growth (%)

{"columns": ["COMPOUND", "ENDPOINT", "UNITS OF MEASURE", "NUMBER"],
 "data": [
  ["CCOC(=O)c1cc2c(n(C)c1=O)-c1cnn(-c3ccc(OC)cc3)c1CC2", "growth", "%", 101],
  ["COc1nc2c(cc1S(=O)(=O)c1ccccc1)CCc1c-2cnn1-c1ccccc1", "growth", "%", 78.7],
  ["CC1SC(c2cccc(Oc3ccccc3)c2)N(CCc2cccs2)C1=O (stereo not drawn)", "growth", "%", -69.2],
  ["COc1ccc(OC2=C(C#N)C(=N)N3c4ccccc4Sc4ccccc4C3N2)cc1 (stereo not drawn)", "growth", "%", 96.9],
  ["Cc1nc2cc(Nc3nc(Nc4ccc(F)cc4)nc(-c4cccs4)n3)ccc2n1Cc1ccccc1", "growth", "%", 69.5],
  ["CN1CCc2c(Sc3ccc(C(=O)NO)cc3)c3ccccc3n2C1", "growth", "%", 76.9],
  ["Cc1nc(NN)c([N+](=O)[O-])c(NN)n1", "growth", "%", 107],
  ["COC(=O)c1ccc(C(=O)Nc2ccccc2N)cc1", "growth", "%", 60]
]}

* * *

Readings of growth for the listed compounds
Test system: NCI-H460 lung
Assay: NCI-60 one-dose screen, 48 h (100 = growth as untreated, 0 = no growth, -100 = all killed)
Conditions: 10 µM unless noted
Compounds without any hit were thinned out: in the full panel of roughly 83,000, 20% have a hit. The source made the active and inactive calls. How the source made its calls: active means growth percent below 10; inactive means the rest.
ENDPOINT: growth

{"columns": ["SUBSTANCE SMILES", "RESULT"],
 "data": [
  ["O/N=C/c1cccs1", "108% (inactive)"],
  ["Cc1ccc(N=c2nc3sc4c(C)ccc(C)c4n3c(N)c2C#N)cc1", "105% (inactive)"],
  ["Cc1ccccc1-n1nnc(C(=O)Nc2nc(-c3ccccc3)c(-c3ccccc3)s2)c1C", "73.2% [50 µM] (inactive)"],
  ["O=S(=O)(Nc1ncccn1)c1ccc(Nc2ccc3nnc(-c4ccncc4)n3n2)cc1", "96.4% (inactive)"],
  ["COc1ccc(OC)c(/C=C2\\Oc3cc(O)ccc3C2=O)c1", "91.6% (inactive)"]
]}

* * *

Tested on: SK-OV-3 ovarian
Assay: NCI-60 one-dose screen, 48 h (100 = growth as untreated, 0 = no growth, -100 = all killed)
Conditions: 10 µM
Procedure: Growth inhibition of the SK-OV-3 human tumor cell line is measured as a screen for anti-cancer activity. Cells are grown in 96 well plates and exposed to the test compound for 48 hours. Compounds are tested at a single concentration, which is 10^-5 M for most compounds. The reported endpoint is percent growth (GI% or GIPRCNT), where numbers from 0 - 100% represent growth inhibition, and numbers from -100% - 0 represent cell death. For example, a value of 40 represents 60% growth inhibition. […]
The panel holds about 83,000 compounds, 20% with a hit somewhere; the sample as a whole holds those more often.
ENDPOINT: growth (%)

{"columns": ["SUBSTANCE SMILES", "UNITS OF MEASURE", "NUMBER"],
 "data": [
  ["CN1CCC(OC2c3ccccc3CCc3ccccc32)CC1", "%", 96],
  ["CN(C)C(=S)SCN1C(=O)c2ccc([N+](=O)[O-])cc2S1(=O)=O", "%", 107],
  ["Cc1nn(-c2ccccc2)c2nc3nc4c(c(N)c3c(-c3ccc(Cl)cc3)c12)CCCC4", "%", 101]
]}

* * *

Readings of growth for the listed molecules
System: BT-549 breast
Experiment: NCI-60 one-dose screen, 48 h (100 = growth as untreated, 0 = no growth, -100 = all killed)
Conditions: 10 µM unless noted
Compounds without any hit were thinned out: in the full panel of roughly 83,000, 20% have a hit.

{"columns": ["MOLECULE", "UNITS OF MEASURE", "growth"],
 "data": [
  ["Fc1ccccc1Nc1ccc2nnc(-c3ccncc3)n2n1", "%", 101],
  ["OC[C@@H](O)[C@@H](O)CO", "%", 101],
  ["COc1ccc(/C=N/NC(=O)c2cnn3c2NC(c2ccccc2)C3)cc1OC1CCCC1 (stereo unspecified)", "%", 93.3],
  ["Cc1ccc(N(CSc2ccc(Cl)cc2)CSc2ccc(Cl)cc2)cc1", "%", 19.1],
  ["Cc1nn2c(-c3nc4ccc(Cl)cc4[nH]3)c(-c3ccc(F)cc3)nc2s1", "%", 102],
  ["COc1cc(-c2nc(SC(C)C)nc(Nc3ccccc3C)c2C#N)cc(OC)c1OC", "%", 109]
]}

* * *

Test system: DU-145 prostate
Assay: NCI-60 one-dose screen, 48 h
Conditions: 10 µM unless noted
Compounds without any hit were thinned out: in the full panel of roughly 83,000, 20% have a hit. Calls of active or inactive are those of the source. Rule for the calls: active = growth percent below 10; inactive = the rest.
Outcomes: y = active, n = inactive

{"columns": ["COMPOUND", "ASSAYED TARGET", "CATEGORY LABEL"],
 "data": [
  ["CNc1ccc(Br)cc1-c1n[nH]c(=O)[nH]c1=O", "DU-145 prostate", "n"],
  ["CCN(CC)c1ccc2c(c1)OS(=O)(=O)N=C2", "DU-145 prostate", "n"],
  ["COc1cc2nc(SCc3cc(OC)c(OC)c(OC)c3)n(-c3ccccc3OC)c(=O)c2cc1OC", "DU-145 prostate", "n"],
  ["Cc1nc2cc(Nc3nc(Nc4ccc(F)cc4)nc(-c4ccc(Cl)cc4)n3)ccc2n1Cc1ccccc1", "DU-145 prostate", "n"],
  ["COc1cc(CNCCCN2C(=O)c3ccc4c5c(ccc(c35)C2=O)C(=O)N(CCCNCc2cc(OC)c(OC)c(OC)c2)C4=O)cc(OC)c1OC", "DU-145 prostate", "y"],
  ["Cc1oc2c(c1C(=O)N1CC[C@@H](N)C1)C(=O)c1c(c(O)c3ccccc3c1O)C2=O", "DU-145 prostate", "n"],
  ["Brc1ccccc1Nc1ccc2nnc(-c3ccncc3)n2n1", "DU-145 prostate", "n"],
  ["COc1cc(-c2nc(SC(C)C)nc(Nc3cccc(C)c3)c2C#N)cc(OC)c1OC", "DU-145 prostate", "n"],
  ["COc1ccc(/C=N/NC(=O)c2cnn3c2NC(c2ccccc2)C3)cc1OC1CCCC1 (stereo not drawn)", "DU-145 prostate", "n"],
  ["COc1ccc(-c2nc3sc(C)cn3c2/C=C/C(=O)c2cc(OC)c(OC)c(OC)c2)cc1", "DU-145 prostate", "n"],
  ["COc1cc2oc(-c3ccc(O)cc3)cc(=O)c2c(O)c1I", "DU-145 prostate", "n"],
  ["COC(=O)c1c2c(c(C)[n+]([O-])c1C)C(=O)C=C(NCc1cccc(Cl)c1)C2=O", "DU-145 prostate", "y"],
  ["C[C@]1(CO)C[C@@H](O)C[C@]2(C)[C@@H]1CC[C@@]13C[C@@H]4[C@@H](C[C@H]12)[C@]4(C)C3", "DU-145 prostate", "n"],
  ["COC(=O)c1cc(-c2ccc(C)cc2)n(C(=O)CSc2nc3sc(C(N)=O)c(C)c3c(=O)n2Cc2ccccc2)n1", "DU-145 prostate", "n"],
  ["Cn1cc(C(=O)NCCC(=N)N)cc1NC(=O)CN=C(N)N", "DU-145 prostate", "n"],
  ["Cc1cccc2c(=O)c3c(sc12)c(NCCCN)nc1ccccc13", "DU-145 prostate", "y"],
  ["Oc1ccccc1/C=N/Nc1nc2ccccc2s1", "DU-145 prostate", "n"],
  ["COc1ccc(OC)c(C2C(C#N)=C(N)Oc3cc(O)ccc32)c1 (stereo not drawn)", "DU-145 prostate", "n"]
]}
